Measured On: glucose oxidase (GOx) (Aspergillus niger)
Sequence (P13006 17-605): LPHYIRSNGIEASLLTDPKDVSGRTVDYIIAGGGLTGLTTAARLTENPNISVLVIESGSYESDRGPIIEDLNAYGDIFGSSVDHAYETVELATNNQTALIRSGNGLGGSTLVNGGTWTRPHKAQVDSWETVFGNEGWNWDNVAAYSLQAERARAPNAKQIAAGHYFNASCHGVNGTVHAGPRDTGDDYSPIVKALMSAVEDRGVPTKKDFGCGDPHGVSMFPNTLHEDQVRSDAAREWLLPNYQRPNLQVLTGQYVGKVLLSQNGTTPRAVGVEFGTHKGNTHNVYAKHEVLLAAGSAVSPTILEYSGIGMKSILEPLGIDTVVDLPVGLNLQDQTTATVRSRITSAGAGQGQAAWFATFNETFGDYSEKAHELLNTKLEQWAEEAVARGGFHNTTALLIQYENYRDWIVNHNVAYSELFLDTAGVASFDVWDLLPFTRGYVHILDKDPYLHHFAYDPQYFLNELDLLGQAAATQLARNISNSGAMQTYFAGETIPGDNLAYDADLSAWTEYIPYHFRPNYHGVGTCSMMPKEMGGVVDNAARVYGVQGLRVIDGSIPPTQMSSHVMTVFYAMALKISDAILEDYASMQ
Assay Protocol: luminescent (ROS-Glo) H2O2-detection enzyme assay, counter-screen
Assay type: biochemical
Measurement Kind: IC50 (µM)
Respond with the bare value in µM.

Prompt: Returns the measured IC50 for the input molecule. Input: O=c1c2ccccc2[se]n1-c1ccccc1
Completion: 20.5

---

Measured On: Quiescin sulfhydryl oxidase 1 (QSOX1) (Homo sapiens, UniProt O00391)
Construct: amino acids 33–546 of QSOX1-S, N-terminal poly-histidine tag (rQSOX1)
Sequence (O00391 33-546): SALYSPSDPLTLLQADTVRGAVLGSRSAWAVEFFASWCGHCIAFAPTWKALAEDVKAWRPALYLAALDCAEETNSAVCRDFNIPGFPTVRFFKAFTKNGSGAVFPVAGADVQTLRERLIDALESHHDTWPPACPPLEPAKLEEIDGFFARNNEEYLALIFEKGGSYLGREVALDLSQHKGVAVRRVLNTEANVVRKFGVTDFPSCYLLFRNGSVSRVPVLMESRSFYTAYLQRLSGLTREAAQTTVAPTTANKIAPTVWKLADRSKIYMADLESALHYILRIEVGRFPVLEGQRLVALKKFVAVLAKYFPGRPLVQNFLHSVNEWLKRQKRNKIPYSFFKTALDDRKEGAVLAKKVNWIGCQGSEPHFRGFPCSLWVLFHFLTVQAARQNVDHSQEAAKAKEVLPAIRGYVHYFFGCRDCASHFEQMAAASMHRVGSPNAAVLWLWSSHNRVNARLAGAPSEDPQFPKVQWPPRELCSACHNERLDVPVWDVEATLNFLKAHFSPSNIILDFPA
Assay Protocol: intact-protein LC-ESI-MS of covalent adducts and maleimide protection assay; IC50 from purified-enzyme luminescent H2O2 assay, confirmed by HVA fluorescence assay
Measurement Kind: IC50 (µM)
Please reply with the bare figure in µM and do not write the unit itself.

Prompt: Entry O=c1c2ccccc2[se]n1-c1ccccc1 has what IC50?
Completion: 5.4
